- assay.name: single oral dose pharmacokinetic study in healthy and NASH subjects
- Format: in vivo, human
- condition.context: human, plasma, po, 50 mg, 50 mg single oral dose, NASH; read-out: Tmax, Geometric Mean
- Procedure: The present Example was a randomized, dose ranging, single dose safety and pharmacokinetic study of 25HC3S administered to subjects with NASH and control healthy subjects. […] For each cohort, 10 subjects with NASH were enrolled which were further classified into cirrhotic and non-cirrhotic. Each subject received only one dose of study treatment. The second cohort was dosed after a review of safety and tolerability data from Cohort 1.
endpoint: Tmax

molecule	endpoint	measured.value
C[C@H](CCCC(C)(C)O)[C@H]1CC[C@H]2[C@@H]3CC=C4C[C@@H](OS(=O)(=O)[O-])CC[C@]4(C)[C@H]3CC[C@]12C.[Na+] [25HC3S sodium, 25-hydroxycholesterol-3-sulfate sodium]	Tmax	2.31 h
